B1: PhoQ; a variant is named by its letters at X, in order, P23837 (parent)
chain: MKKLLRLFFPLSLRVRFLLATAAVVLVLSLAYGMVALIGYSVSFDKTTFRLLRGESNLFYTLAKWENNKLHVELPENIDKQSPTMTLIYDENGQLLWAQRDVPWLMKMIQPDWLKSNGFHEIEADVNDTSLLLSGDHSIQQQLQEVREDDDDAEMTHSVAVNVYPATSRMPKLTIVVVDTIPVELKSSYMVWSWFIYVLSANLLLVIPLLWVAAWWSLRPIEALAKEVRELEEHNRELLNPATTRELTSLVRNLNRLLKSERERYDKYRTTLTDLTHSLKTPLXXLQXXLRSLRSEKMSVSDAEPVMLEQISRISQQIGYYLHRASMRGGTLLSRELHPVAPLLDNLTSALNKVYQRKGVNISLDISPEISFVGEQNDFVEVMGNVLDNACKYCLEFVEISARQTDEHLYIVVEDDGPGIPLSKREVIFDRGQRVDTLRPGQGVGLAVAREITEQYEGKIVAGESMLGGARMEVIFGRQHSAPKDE

variants of: B1; assay: enrichment ratio after two sorts for PhoP signalling (ratio (wild type AVST 3.29)); higher = more functional; conditions: with PhoP (E. coli)
Whole data set: some 140,000 sequences, median “enrichment ratio after two sorts for PhoP signalling” near 0, cut for the highest 2% near 11. The sample holds the highest values, similar sequences and a random draw of the others, so the mix is not that of the screen.

MUTANT_ID: SEIV
RELATION: =
enrichment ratio: 18.7

MUTANT_ID: SIMT
RELATION: =
enrichment ratio: 7.68

MUTANT_ID: SEAV
RELATION: =
enrichment ratio: 13.6

MUTANT_ID: ANVL
RELATION: =
enrichment ratio: 13.9

MUTANT_ID: PWQL
RELATION: =
enrichment ratio: 0.791

MUTANT_ID: FILQ
RELATION: =
enrichment ratio: 11.5

MUTANT_ID: FIMQ
RELATION: ≤
enrichment ratio: 0.25

MUTANT_ID: AHIL
RELATION: ≤
enrichment ratio: 0.25

MUTANT_ID: IAKM
RELATION: ≤
enrichment ratio: 0.25

MUTANT_ID: QMPA
RELATION: ≤
enrichment ratio: 0.25

MUTANT_ID: FPLQ
RELATION: ≤
enrichment ratio: 0.25

MUTANT_ID: SLMT
RELATION: ≤
enrichment ratio: 0.25

MUTANT_ID: ANYN
RELATION: ≤
enrichment ratio: 0.25

MUTANT_ID: QEMT
RELATION: =
enrichment ratio: 5.12

MUTANT_ID: NGDG
RELATION: ≤
enrichment ratio: 0.25

MUTANT_ID: ANYM
RELATION: =
enrichment ratio: 0.253

MUTANT_ID: LVAY
RELATION: ≤
enrichment ratio: 0.25

MUTANT_ID: ADVL
RELATION: =
enrichment ratio: 3.21

MUTANT_ID: VRCA
RELATION: ≤
enrichment ratio: 0.25

MUTANT_ID: IMKH
RELATION: ≤
enrichment ratio: 0.25

MUTANT_ID: LEAV
RELATION: ≤
enrichment ratio: 0.25

MUTANT_ID: MPLQ
RELATION: ≤
enrichment ratio: 0.25

MUTANT_ID: TSCC
RELATION: =
enrichment ratio: 17.3

MUTANT_ID: HWVL
RELATION: ≤
enrichment ratio: 0.25

MUTANT_ID: STAV
RELATION: =
enrichment ratio: 5.94

MUTANT_ID: STMT
RELATION: =
enrichment ratio: 16.6

MUTANT_ID: KYMT
RELATION: ≤
enrichment ratio: 0.25

MUTANT_ID: MGIR
RELATION: ≤
enrichment ratio: 0.25

MUTANT_ID: STLA
RELATION: =
enrichment ratio: 10.9

MUTANT_ID: SWMT
RELATION: ≤
enrichment ratio: 0.25

MUTANT_ID: SICC
RELATION: =
enrichment ratio: 17.3

MUTANT_ID: VGDP
RELATION: ≤
enrichment ratio: 0.25

MUTANT_ID: VKIK
RELATION: ≤
enrichment ratio: 0.25

MUTANT_ID: ANNL
RELATION: =
enrichment ratio: 15.7

MUTANT_ID: FDLQ
RELATION: ≤
enrichment ratio: 0.25

MUTANT_ID: RLKF
RELATION: ≤
enrichment ratio: 0.25

MUTANT_ID: KYCC
RELATION: ≤
enrichment ratio: 0.25

MUTANT_ID: ANIL
RELATION: =
enrichment ratio: 22.8

MUTANT_ID: SRMT
RELATION: =
enrichment ratio: 0.372

MUTANT_ID: SEIC
RELATION: =
enrichment ratio: 32.9

MUTANT_ID: ANSL
RELATION: =
enrichment ratio: 16.8

MUTANT_ID: MRRQ
RELATION: ≤
enrichment ratio: 0.25

MUTANT_ID: FALQ
RELATION: =
enrichment ratio: 7.48

MUTANT_ID: SSCC
RELATION: =
enrichment ratio: 17.1

MUTANT_ID: SLYE
RELATION: ≤
enrichment ratio: 0.25

MUTANT_ID: NSCC
RELATION: ≤
enrichment ratio: 0.25
